Tested on: Hs-578T
Experiment: NCI tumour cell line growth inhibition, 48 h
Calls of active or inactive are those of the source. Rule as the data show it: active = GI50 up to about 1.1 µM and inactive = higher.
I would appreciate it if you answered using one of these outcomes: active, inactive

[[record]]
molecule = "COC1(OC)C2(Cl)C(Cl)=C(Cl)C1(Cl)C1COCC12 (stereo unspecified)"
class_assignment = "inactive"


Now for another entry.
Exercise: Could you check what this test reported for `COc1c(Br)cc2ccccc2c1-c1c(OC)c(Br)cc2ccccc12` ?
Key: inactive

* * *

Test system: RPMI-8226
Assay: NCI tumour cell line growth inhibition, 48 h
Calls of active or inactive are those of the source. No stated cut-off is given here; in the data, active = GI50 up to about 1.1 µM and inactive = higher.
Endpoint: GI50

Field: example entries. Status: answers known.
[[record]]
compound = "CC(C)=CCC/C(C)=C/C=C/C(C)=C/C=C/C(C)=C/C=C/C=C(C)/C=C/C=C(C)/C=C/[C@H]1C(C(C)(C)O)CC[C@]1(C)O (stereo partly specified)"
endpoint = "GI50"
test_result = "17.7 µM (inactive)"

[[record]]
compound = "CN(C)CC1CN=C(N)O1 (stereo unspecified)"
endpoint = "GI50"
test_result = "> 100 µM (inactive)"

[[record]]
compound = "Cc1cc(N(CCC#N)CCC#N)ccc1/C=C1N=C(/C=C\\c2ccccc2)N(c2ccc(C(=O)O)cc2)C\\1=O"
endpoint = "GI50"
test_result = "> 100 µM (inactive)"


The compound listed as `CC1(C)OCC=CCO1` has a reported GI50 of > 100 µM (inactive)

The compound listed as `C=C1[C@H](OC(=O)C(C)C)[C@]23CC4(O)[C@@H]5[C@@]6(C)CCC[C@]57C([C@@H]2C[C@@]1(O)[C@H](O)[C@@H]73)N4C6` has a reported GI50 of > 100 µM (inactive)

The compound listed as `N/N=C1/CCCc2nonc21` has a reported GI50 of > 100 µM (inactive)

The compound listed as `O=C(O/C(=C(/N=N/c1ccccc1)c1ccccc1)c1ccccc1)c1ccccc1` has a reported GI50 of > 100 µM (inactive)

The compound listed as `OC(c1ccccc1)(c1ccccc1)c1cccnc1` has a reported GI50 of > 100 µM (inactive)
